Measured IC50 values are reported for all entries that follow.
- Test system: H1299 p53 Y220C
- Experiment: Cell Proliferation Assay (CellTiter-Glo, CTG), H1299 p53 Y220C (NClH1299-inducible p53 Y220C)
- Type: cell-based
- Recorded Conditions: Homo sapiens, NCI-H1299, 120 h, CellTiter-Glo, H1299 p53 Y220C, 5 days
Parameter: IC50

1. CNC(=O)c1ccc(NCC#Cc2nc3c(NC4CCN(C)CC4)cc(NC(C)=O)cn3c2CC(F)(F)F)c(OC)c1; > 3 µM
2. CNC(=O)c1ccc(NCC#Cc2nc3c(N[C@@H]4CCN(C)C[C@@H]4F)nccn3c2SC(F)(F)F)c(OC)c1; < 0.75 µM
3. CNC(=O)c1ccc(NCC#Cc2nc3c(N[C@H]4CCC(=O)N(C)C4)cccn3c2SC(F)(F)F)c(OC)c1; < 0.75 µM
4. COc1cc(S(=O)(=O)N(C)C)ccc1NCC#Cc1nc2c(N[C@@H]3CCN(C)C[C@@H]3F)cccn2c1CC(F)(F)F; 0.75 to 1.5 µM

----------
- Test System: p53 Y220C mutant protein (amino acid residues 94-293) (Homo sapiens, UniProt P04637, Y220C)
- Construct: p53 Y220C mutant protein (amino acid residues 94-293)
- Experiment: Thermal Shift Assay (TSA), dTM
- Format: binding
- Recorded Conditions: thermal shift, 100 uM compound; read-out: TSA P53 Y220C dTM (100 uM)
Parameter: ΔTm at 100 µM

1) CC#Cc1nn2c(N[C@@H]3CCN(C)C[C@@H]3F)cccc2c1CC(F)(F)F; 5 to 10 °C
2) C=Cc1c(C#CC)nc2c(NC3CCN(C)CC3)cccn12; 1 to 5 °C
3) CNC(=O)c1ccc(NCC#Cc2nc3c(N[C@H]4CCc5nncn5C4)cccn3c2SC(F)(F)F)c(OC)c1; ≥ 10 °C
4) COc1ccc(C(=O)N2CCC2)cc1NCC#Cc1nc2c(N[C@@H]3CCN(C)C[C@@H]3F)cccn2c1SC(F)(F)F; ≥ 10 °C
5) COc1cc(S(C)(=O)=O)ccc1NCC#Cc1nc2c(NC3CCN(CC(C)(C)O)CC3)cccn2c1CC(F)(F)F; ≥ 10 °C
6) CNC(=O)c1ccc(NCC#Cc2nc3c(N[C@@H]4C[C@H]5CC[C@@H]([C@@H]4F)N5C)cccn3c2SC(F)(F)F)c(OC)c1; ≥ 10 °C
7) CNC(=O)c1ccc(OC)c(NCC#Cc2nc3c(N[C@@H]4CCN(C)C[C@@H]4F)cccn3c2CC(F)(F)F)n1; ≥ 10 °C
8) CNC(=O)c1ccc(NCC#Cc2nc3c(N[C@@H]4CCOC[C@@H]4F)cccn3c2SC(F)(F)F)c(OC)c1; ≥ 10 °C
9) CNC(=O)c1ccc(NCC#Cc2nc3c(N[C@@H]4CCN(C)C[C@@H]4F)cccn3c2CC(F)(F)F)c(C2CC2)c1; ≥ 10 °C
10) CNC(=O)c1ccc(OC)c(NCC#Cc2nc3c(N[C@@H]4CCN(C)C[C@@H]4F)cccn3c2SC(F)(F)F)c1; ≥ 10 °C
11) CNC(=O)c1ccc(NCC#Cc2nc3c(N[C@@H]4CNC[C@@H]4F)cccn3c2SC(F)(F)F)c(OC)c1; ≥ 10 °C
12) COc1ccc(C(=O)NC2CC2)cc1NCC#Cc1nc2c(N[C@@H]3CCN(C)C[C@@H]3F)cccn2c1SC(F)(F)F; ≥ 10 °C
13) C=C(F)C(=O)Nc1cc(NC2CCN(C)CC2)c2nc(C#CCNc3ccc(C(=O)NC)cc3OC)c(CC(F)(F)F)n2c1; 1 to 5 °C
14) COC[C@H](O)CN1CCC(Nc2cccn3c(CC(F)(F)F)c(C#CCNc4ccc(S(C)(=O)=O)cc4OC)nc23)CC1; ≥ 10 °C
15) COc1cc(S(=O)(=O)N(C)C)ccc1NCC#Cc1nc2c(N[C@@H]3CCN(C)C[C@@H]3F)cccn2c1CC(F)(F)F; ≥ 10 °C
16) CN1CC[C@@H](Nc2cccn3c(CC(F)(F)F)c(C#CCNc4ccccc4)nc23)[C@@H](F)C1; 5 to 10 °C
17) CCS(=O)(=O)c1ccc(NCC#Cc2nc3c(N[C@@H]4CCNC[C@@H]4F)cccn3c2SC(F)(F)F)c(OC)c1; ≥ 10 °C
18) CNC(=O)c1cnc(NCC#Cc2nc3c(N[C@@H]4CCN(C)C[C@@H]4F)cccn3c2SC(F)(F)F)n1C; ≥ 10 °C
19) CNC(=O)c1ccc(NCC#Cc2nc3c(N[C@@H]4CCN(C)C[C@@H]4F)cccn3c2SC(F)(F)F)c(OCCOC)c1; ≥ 10 °C

Attribution: patent US20260374766A1
